Activity values, listed per item
test: Antioxidant activity assessed as ferric ion reducing activity using ferric-TPTZ by measuring concentration of compound with antioxidant capacity equivalent to ferrous sulfate at 0.5 mmol/L by FRAP assay; format: functional

compound smiles	unit info	comparative sign	Activity
S=c1oc(-c2ccc3c(c2)OCCO3)nn1CNc1ccccc1	µM	=	735
S=c1oc(-c2ccc3c(c2)OCCO3)nn1CNc1ccc(Cl)cc1	µM	=	584
FC(F)(F)c1cccc(NCn2nc(-c3ccc4c(c3)OCCO4)oc2=S)c1	µM	>	1000

###

assay: Antioxidant activity assessed as ferric ion reducing activity using ferric-TPTZ by measuring concentration of compound with antioxidant capacity equivalent to ferrous sulfate at 0.5 mmol/L by FRAP assay; format: functional

compound smiles	comparative sign	Activity [µM]
O=[N+]([O-])c1ccc(NCn2nc(-c3ccc4c(c3)OCCO4)oc2=S)cc1	>	1000
S=c1oc(-c2ccc3c(c2)OCCO3)nn1CNc1ccc(Br)cc1	=	531
S=c1[nH]nc(-c2ccc3c(c2)OCCO3)o1	=	612
O=[N+]([O-])c1ccccc1NCn1nc(-c2ccc3c(c2)OCCO3)oc1=S	>	1000
Fc1cccc(NCn2nc(-c3ccc4c(c3)OCCO4)oc2=S)c1	=	398
Cc1ccc(NCn2nc(-c3ccc4c(c3)OCCO4)oc2=S)cc1	=	434
COC(=O)c1ccc2c(c1)OCCO2	>	1000
S=c1oc(-c2ccc3c(c2)OCCO3)nn1CNC1CCCCC1	>	1000
S=c1oc(-c2ccc3c(c2)OCCO3)nn1CNc1cccc(Cl)c1	=	846
Fc1cccc(F)c1NCn1nc(-c2ccc3c(c2)OCCO3)oc1=S	=	268
O=[N+]([O-])c1ccc(NCn2nc(-c3ccc4c(c3)OCCO4)oc2=S)c(Cl)c1	>	1000
